- Tested on: HOP-18
- MEASUREMENT_DESCRIPTION: NCI tumour cell line growth inhibition, 48 h
The source made the active and inactive calls. Cut-off read from the data, not from the text of the source: active = GI50 up to about 1.1 µM and inactive = higher.
QUANTITY_KIND: GI50

Prompt line: Give the value of GI50 reported for the following: O=C(c1ccco1)N(C(=S)N1CCN(c2ccccc2)CC1)C1CCCCC1
Response line: > 100 µM (inactive)

----------
- Tested on: HCT-116
- MEASUREMENT_DESCRIPTION: NCI tumour cell line growth inhibition, 48 h
Activity calls are given as the source filed them. No stated cut-off is given here; in the data, active = GI50 up to about 1.1 µM and inactive = higher.
# output must be one of Yes = active, No = inactive

| COMPOUND | TESTED_TARGET | LABEL_CLASS |
| --- | --- | --- |
| C=C1C(C2(C)C(OC(C)=O)CC(=O)OC(C)(COC(C)=O)C2CC(=O)OC)C(OC=O)C(OC(=O)C(O)C(C)CC)C2(C)C(c3ccoc3)CC(=O)C12O (centres undefined) | HCT-116 | No |
| COC(=O)[C@]12CCC(C)[C@H](C)[C@H]1C1=CCC3[C@@]4(C)CC[C@H](OC(C)=O)C(C)(C)C4CC[C@@]3(C)C1(C)C(O)C2 (some centres undefined) | HCT-116 | No |
| COc1ccc(C(=O)N(Cc2cccnc2)C(=S)N(Cc2cccnc2)C(=O)c2ccc(OC)cc2)cc1 | HCT-116 | No |
| CCOC(=O)/C(C(C)=O)=C1/N[C@H](C(=O)OCC)CS1 | HCT-116 | No |
| O=c1[nH]c(=O)n(C2CC(O)C(CO)O2)cc1I (centres undefined) | HCT-116 | No |

Prompt line: I'd appreciate the recorded outcome for CN(C)CCNc1ccc2c(=O)n(CCN(C)C)c(=O)n3c4ccc([N+](=O)[O-])cc4c(=O)c1c23 from this test.
Response line: Yes

----------
- Test system: EKVX
- MEASUREMENT_DESCRIPTION: NCI tumour cell line growth inhibition, 48 h
Active and inactive are the calls of the source. No stated cut-off is given here; in the data, active = GI50 up to about 1.1 µM and inactive = higher.
// GI50 lookup, one value per entry

Observe how each entry below is paired with its result.
| COMPOUND | GI50 |
| --- | --- |
| O=[PH](O)c1cc2ccccc2c2ccccc12 | > 100 µM (inactive) |
| COC(=O)c1c(O)ccc2c1c1cc3ccccc3c(O)c1n2Cc1ccccc1Cl | 25.8 µM (inactive) |
| N#CC1(Cc2ccccc2[N+](=O)[O-])c2ccccc2C2C(N1C(=O)c1ccccc1)C2(Cl)Cl (stereo unspecified) | > 100 µM (inactive) |
| CN(C)CC1CCC(CN(C)C)C1=NO (stereo unspecified) | > 100 µM (inactive) |
| COC1(C)Cc2c(c(C)c(O)c3c2C(=O)C=C(Cl)C3=O)O1 (stereo unspecified) | > 100 µM (inactive) |

// below: GI50 requested for another compound
Prompt line: Give the value of GI50 reported for the following: CC1(C)O[C@H](C(=O)O)[C@@H](C(=O)O)O1
Response line: > 100 µM (inactive)

----------
- System: CCRF-CEM
- MEASUREMENT_DESCRIPTION: NCI tumour cell line growth inhibition, 48 h
Active and inactive are the calls of the source. No stated cut-off is given here; in the data, active = GI50 up to about 1.1 µM and inactive = higher.
QUANTITY_KIND: GI50

| COMPOUND | TESTED_TARGET | GI50 |
| --- | --- | --- |
| O=C1/C(=C/c2ccc(OC(=O)c3ccc(Cl)cc3)cc2)CCC/C1=C\c1ccc(OC(=O)c2ccc(Cl)cc2)cc1 | CCRF-CEM | > 100 µM (inactive) |
| O=c1nc(N2CCN(c3ccccc3)CC2)ccn1C1OC(CO)C(O)C1O (configuration not stated) | CCRF-CEM | 35.6 µM (inactive) |
| COc1cc2c(cc1OC)C1Cc3ccccc3CN1CCC2 (configuration not stated) | CCRF-CEM | 46.9 µM (inactive) |
| O=[PH](O)c1cc2ccccc2c2ccccc12 | CCRF-CEM | > 100 µM (inactive) |
| CCCCCCCCCc1cc(-c2ccc(C=O)s2)sc1-c1ccc(C=O)s1 | CCRF-CEM | 2.23 µM (inactive) |
| O=C(Nc1ccc([N+](=O)[O-])cc1C(=O)O)c1ccc([N+](=O)[O-])cc1 | CCRF-CEM | 11.4 µM (inactive) |

// below: GI50 requested for another compound
Prompt line: Give the value of GI50 reported for the following: O=C(Nc1cc2cc([N+](=O)[O-])ccc2oc1=O)c1cccs1
Response line: 11.3 µM (inactive)

----------
- Test system: DMS-114
- MEASUREMENT_DESCRIPTION: NCI tumour cell line growth inhibition, 48 h
Activity calls are given as the source filed them. Rule as the data show it: active = GI50 up to about 1.1 µM and inactive = higher.
# output must be one of active, inactive

Prompt line: I'd appreciate the recorded outcome for O=CC1=CCCC2(C1)OCCO2 from this test.
Response line: inactive

Prompt line: I'd appreciate the recorded outcome for COc1ccc(/C=C/C(=O)c2cc(C(=O)O)c(OC)cc2OC)cc1OC from this test.
Response line: inactive

Prompt line: I'd appreciate the recorded outcome for CCCCCCCC(=O)OCC1OC(n2cc(F)c(=O)[nH]c2=O)C(NC(=O)OCc2ccccc2)C(O)C1O (stereo unspecified) from this test.
Response line: inactive

Prompt line: I'd appreciate the recorded outcome for COc1ccc(/C=C(/C(=O)O)c2cc(OC)c(OC)c(OC)c2)cc1 from this test.
Response line: inactive

----------
// GI50 lookup, one value per entry
- System: ACHN
- MEASUREMENT_DESCRIPTION: NCI tumour cell line growth inhibition, 48 h
Activity calls are given as the source filed them. Cut-off read from the data, not from the text of the source: active = GI50 up to about 1.1 µM and inactive = higher.

Observe how each entry below is paired with its result.
| STRUCTURE_NOTATION | GI50 |
| --- | --- |
| O=C1Sc2cc3ccccc3cc2C(=O)Sc2cc3ccccc3cc21 | 28.9 µM (inactive) |
| COC(=O)/C(=C\c1ccco1)P(=O)(OC)OC | 29.4 µM (inactive) |
| COc1ccc(C(=O)NCCN(C)C)c2nc3ccccc3cc12 | 0.21 µM (active) |
| Cc1oc2c(C)c3oc(=O)cc(C)c3cc2c1CN | 27.7 µM (inactive) |
| NNS(=O)(=O)c1cc(C(=O)O)cc(C(=O)O)c1 | > 100 µM (inactive) |

// below: GI50 requested for another molecule
Prompt line: Give the value of GI50 reported for the following: Cc1cccc(-c2nnc3s/c(=C\c4ccc5c(c4)OCO5)c(=O)n23)c1
Response line: > 100 µM (inactive)

----------
// GI50 lookup, one value per entry
- System: OVCAR-3
- MEASUREMENT_DESCRIPTION: NCI tumour cell line growth inhibition, 48 h
Calls of active or inactive are those of the source. Cut-off read from the data, not from the text of the source: active = GI50 up to about 1.1 µM and inactive = higher.

Observe how each entry below is paired with its result.
| COMPOUND | GI50 |
| --- | --- |
| COc1ccc(/C(=N\Nc2ccccn2)c2ccccn2)cc1 | < 0.01 µM (active) |
| COc1ccc2oc(S(=O)(=O)N3CC(CCl)c4ccc([N+](=O)[O-])cc43)cc2c1 (stereo unspecified) | 0.108 µM (active) |
| Cc1c/c(=N\c2ccc3c(c2)c(N)cc(C)[n+]3C)nc(N)n1C | > 100 µM (inactive) |
| O=[PH](O)c1cc2ccccc2c2ccccc12 | > 100 µM (inactive) |
| O=C1Sc2cc3ccccc3cc2C(=O)Sc2cc3ccccc3cc21 | 21.1 µM (inactive) |

Prompt line: Give the value of GI50 reported for the following: CN(C)CCNc1ccc(C(=O)NCCCN(C)CCCNC(=O)c2ccc(NCCN(C)C)c3c(=O)c4ccccc4[nH]c23)c2[nH]c3ccccc3c(=O)c12
Response line: 0.469 µM (active)

Prompt line: Give the value of GI50 reported for the following: C1CCN2CC3CCCN4CCCC(C2C1)C34 (stereo unspecified)
Response line: > 100 µM (inactive)

Prompt line: Give the value of GI50 reported for the following: O[C@H]1[C@H](O)[C@@H](O)[C@@]2(O)C[C@@H](O)[C@@H]1N2
Response line: > 100 µM (inactive)

Prompt line: Give the value of GI50 reported for the following: O=C(c1ccco1)N(C(=S)N1CCN(c2ccccc2)CC1)C1CCCCC1
Response line: > 100 µM (inactive)

Prompt line: Give the value of GI50 reported for the following: Cc1ccc(S(=O)(=O)N2C3C=CC(C3)[C@@H]2C(Cl)(Cl)Cl)cc1 (stereo partly specified)
Response line: 6.64 µM (inactive)

Prompt line: Give the value of GI50 reported for the following: Cn1cnc([N+](=O)[O-])c1[Se]c1ncnc2nc[nH]c12
Response line: 2 µM (inactive)

Prompt line: Give the value of GI50 reported for the following: O=c1c2cc3c(=O)n4c(cc(-c5ccccc5)c5cc(Cl)ccc54)nc3cc2nc2cc(-c3ccccc3)c3cc(Cl)ccc3n12
Response line: > 100 µM (inactive)

Prompt line: Give the value of GI50 reported for the following: CCc1ccccc1NC(=O)/C(=N/O)C(C)=O
Response line: > 100 µM (inactive)

Prompt line: Give the value of GI50 reported for the following: CCOC(=O)c1c2ccc(/C=C/C(=O)OC)ccc-2c(C(=O)OCC)c1N
Response line: > 100 µM (inactive)

Prompt line: Give the value of GI50 reported for the following: CC1=CC(=O)/C(=C/NC(=S)C(N)=S)C(=O)O1
Response line: > 100 µM (inactive)

Prompt line: Give the value of GI50 reported for the following: CC(C)(C)c1cc(C2c3cc4c(cc3OC(O)(CO)C2C(=O)O)OCO4)cc(C(C)(C)C)c1O.CC(C)(C)c1cc(C2c3cc4c(cc3OC3(O)COC(=O)C23)OCO4)cc(C(C)(C)C)c1O (stereo unspecified)
Response line: 5.36 µM (inactive)

Prompt line: Give the value of GI50 reported for the following: C=C(C)[C@H]1C2=CC(C)=C(O2)[C@@H](O)[C@H](C(=C)C)CCC2=C[C@H]1OC2=O [KALLOLIDE A]
Response line: > 100 µM (inactive)

Prompt line: Give the value of GI50 reported for the following: CCCCNc1nc2ccccc2c2c1ncn2CC(C)C
Response line: > 100 µM (inactive)

Prompt line: Give the value of GI50 reported for the following: COC1(C(C)(C)C)C=C(C(C)(C)C)P(=O)(O)O1 (stereo unspecified)
Response line: > 100 µM (inactive)

Prompt line: Give the value of GI50 reported for the following: O=C1OC(c2ccccc2)=N/C1=C/NC(CS)C(=O)O (stereo unspecified)
Response line: > 100 µM (inactive)

Prompt line: Give the value of GI50 reported for the following: COC(=O)/C(=C\c1ccco1)P(=O)(OC)OC
Response line: 26.9 µM (inactive)
